These entries and their values trace back to ChEMBL document CHEMBL1156211.

# tested-on: Mitogen-activated protein kinase 14 (Homo sapiens, UniProt Q16539)
# Sequence (Q16539 whole entry): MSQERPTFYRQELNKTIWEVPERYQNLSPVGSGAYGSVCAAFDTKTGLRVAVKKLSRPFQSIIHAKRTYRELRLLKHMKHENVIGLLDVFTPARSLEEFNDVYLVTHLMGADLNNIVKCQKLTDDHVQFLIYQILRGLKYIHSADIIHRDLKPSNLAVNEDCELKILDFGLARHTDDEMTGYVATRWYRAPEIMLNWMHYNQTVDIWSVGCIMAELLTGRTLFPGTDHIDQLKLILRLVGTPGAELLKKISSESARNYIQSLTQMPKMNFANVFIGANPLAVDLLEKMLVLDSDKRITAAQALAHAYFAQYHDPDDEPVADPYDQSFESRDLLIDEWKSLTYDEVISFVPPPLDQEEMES
# experiment: Inhibition of p38alpha assessed as inhibition of gamma-32p-ATP incorporation into biotin peptide substrate after 60 mins by scintillation counter
experimental-readout: IC50 (nM)

Use the examples below as a reference point.
INSERT INTO measurements (compound, experimental_readout, result_number) VALUES
  ('CC(=O)N(Cc1ccc(F)cc1)c1ccnc(N[C@@H](C)c2ccccc2)c1', 'IC50', 408),
  ('O=C(c1ccc2ccccc2c1)N(Cc1ccc(F)cc1)c1ccnc(NCc2ccccc2)c1', 'IC50', 1220),
  ('C[C@H](Nc1cc(N(Cc2ccc(F)cc2)C(=O)N2CCC3C=CC=CC3C2)ccn1)c1ccccc1 (some centres undefined)', 'IC50', 1110);

[I] O=C(c1ccc2ccccc2c1)N(Cc1ccc(F)cc1)c1ccncc1
[II] C[C@H](Nc1cc(N(Cc2ccc(F)cc2)S(=O)(=O)c2ccc3ccccc3c2)ccn1)c1ccccc1
[III] CCN(C(=O)c1ccc2ccccc2c1)c1ccnc(N[C@@H](C)c2ccccc2)c1
Would you mind ranking these compounds by ascending IC50? To answer, write out the labels according to the requested order.
III, I, II

[I] C[C@H](Nc1cc(N(Cc2ccc(F)cc2)C(=O)c2ccc3ccccc3c2)ccn1)c1ccccc1
[II] O=C(c1ccc2ccccc2c1)N(Cc1ccc(F)cc1)c1ccnc(NC2CCCCC2)c1
Could you tell me which of these two has the smaller IC50 figure? First: I Second: II # respond with the chosen item's label
I
(I: 345 nM, II: 1110 nM)
